Molecular target: Abf1 (UniProt P14164)
Sequence: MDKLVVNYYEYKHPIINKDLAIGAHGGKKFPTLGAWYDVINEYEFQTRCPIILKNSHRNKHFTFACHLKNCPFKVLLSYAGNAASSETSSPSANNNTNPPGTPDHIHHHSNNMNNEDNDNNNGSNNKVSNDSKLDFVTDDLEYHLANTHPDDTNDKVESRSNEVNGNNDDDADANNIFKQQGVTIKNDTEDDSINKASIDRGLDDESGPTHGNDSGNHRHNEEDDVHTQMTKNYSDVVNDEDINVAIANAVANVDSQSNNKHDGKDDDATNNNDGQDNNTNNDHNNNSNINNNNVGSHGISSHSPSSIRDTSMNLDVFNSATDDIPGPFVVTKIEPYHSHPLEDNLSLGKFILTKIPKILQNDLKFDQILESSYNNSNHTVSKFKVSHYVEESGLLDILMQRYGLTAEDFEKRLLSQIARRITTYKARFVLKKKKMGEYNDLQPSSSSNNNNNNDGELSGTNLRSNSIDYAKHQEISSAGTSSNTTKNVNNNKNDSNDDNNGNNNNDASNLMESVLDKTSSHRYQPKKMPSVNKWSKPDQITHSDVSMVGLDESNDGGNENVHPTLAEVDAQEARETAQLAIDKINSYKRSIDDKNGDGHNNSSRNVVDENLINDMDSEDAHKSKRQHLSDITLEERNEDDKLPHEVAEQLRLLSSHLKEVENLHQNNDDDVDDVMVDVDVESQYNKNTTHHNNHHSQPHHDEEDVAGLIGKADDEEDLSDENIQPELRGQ
Assay: PBM E-score (8-mer binding enrichment) (E-score (-0.5 to 0.5)); higher = stronger / more preferred TF binding
Details: protein concentration: 200 nM; construct: GST-full length
The full ranking holds about 33,000 sequences; the median of “E-score (-0.5 to 0.5)” is about -0.015, and the highest 2% start at about 0.3. Shown is part of a subset that was picked to be rich in the highest values.
Task for the reader: assign each of the following sequences its reported PBM E-score.
Answers are plain numbers.

AAATGAGG	0.0174
AGGCGGTC	-0.166
CAATACGA	0.281
AAATGATG	0.318
GTCGTTGA	0.327

Fill in PBM E-score for each of the 7 sequences listed.
1. CCATACGA
2. CTCGTTGA
3. ACATACGG
4. GCTGGGTA
5. AAATGAAA
6. TAATACGA
7. AGCTAGGG

[0.283, 0.0588, 0.3, -0.0116, 0.214, 0.337, -0.309]

Fill in PBM E-score for each of the 2 sequences listed.
1. GAATGAAC
2. GAATGAGC

1: -0.112; 2: 0.051

Fill in PBM E-score for each of the 3 sequences listed.
1. CTGGCACA
2. GAATACGA
3. ATCGTTGA

0.00341
0.253
0.208
